Measured cAMP accumulation (HTRF): -log10EC50 values are reported for all entries that follow.
# Target Under Test: T1, PTHR1 on CHO-K1/Ga15/PTHR1 cells (UniProt Q03431 27-593, limits assumed)
# T1 sequence (looked up): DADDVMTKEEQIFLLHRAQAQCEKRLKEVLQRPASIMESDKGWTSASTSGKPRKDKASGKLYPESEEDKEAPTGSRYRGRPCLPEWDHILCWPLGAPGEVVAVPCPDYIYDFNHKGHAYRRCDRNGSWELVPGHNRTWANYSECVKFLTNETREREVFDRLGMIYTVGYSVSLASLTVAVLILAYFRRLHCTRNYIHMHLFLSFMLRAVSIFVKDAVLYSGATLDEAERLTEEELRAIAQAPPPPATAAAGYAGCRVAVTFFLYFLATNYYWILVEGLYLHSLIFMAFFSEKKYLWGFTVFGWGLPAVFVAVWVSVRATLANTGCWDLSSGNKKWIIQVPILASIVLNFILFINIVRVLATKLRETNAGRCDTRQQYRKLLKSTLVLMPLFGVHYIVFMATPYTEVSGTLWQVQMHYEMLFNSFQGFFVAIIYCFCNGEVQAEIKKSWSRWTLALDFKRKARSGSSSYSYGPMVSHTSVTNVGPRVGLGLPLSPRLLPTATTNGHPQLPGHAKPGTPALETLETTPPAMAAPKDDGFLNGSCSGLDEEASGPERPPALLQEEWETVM
# Assay Details: cell-based or functional assay
Measured Metric: cAMP accumulation (HTRF): -log10EC50

{"columns": ["Binder", "Reported"],
 "data": [
  ["GVAMIQIMHDIAKIRAEYELREMLLRLLEEIF [R2-2]", "-6.73 -log10EC50 (as headed)"],
  ["AVAEIQLMHQRAKWRAEYELREMLLRLLEEIF [R1-96]", "-8.01 -log10EC50 (as headed)"],
  ["SIIGEQLMLLRALLRAEYELREMLLRLLEEIF [R2-18]", "-2.23 -log10EC50 (as headed)"],
  ["AVAEIQLMHQRAKWKQELELEEKNKKILEDVY [R2-32]", "-6.51 -log10EC50 (as headed)"],
  ["AVAEIQLMHQRAKWKLELELKAFLDQILKDVL [R2-36]", "-8.32 -log10EC50 (as headed)"],
  ["GVAMLQILHDKAKVRAEYELREMLLRLLEEIF [R2-11]", "-5.7 -log10EC50 (as headed)"]
]}
